pKi: −log10 of the molar value.
Prothrombin (Homo sapiens, UniProt P00734) data, read-out pKi
recordedEndpoint: pKi

CC(=N)N1CCC(Oc2ccc(NC/C=C/c3cccc(C(=N)N)c3)cc2)CC1 | 5.30
CC(=N)N1CCC(Oc2ccc(NC/C=C/c3cccc(C(=N)N)c3)cc2[N+](=O)[O-])CC1 | 5.54
N=C(N)c1ccc(O)c(/C=C/CNc2ccc(OC3CCN(C(N)=O)CC3)c(C(F)(F)F)c2)c1 | 6.60
CCOC(=O)CCC(=O)N(C/C=C/c1cccc(C(=N)N)c1)c1ccc(OC2CCN(C(C)=N)CC2)c(C(F)(F)F)c1 | 6.00

P: CC(=N)N1CCC(Oc2ccc(NCc3ccc4ccc(C(=N)N)cc4c3)cc2[N+](=O)[O-])CC1
Q: CC(=N)N1CCC(Oc2ccc(N(C/C=C/c3cccc(C(=N)N)c3)C(=O)CCC(=O)O)cc2C(F)(F)F)CC1
Param metric = pKi; output whichever of P , Q has the minimum value. Mark your selection by writing its label.
Q

I: CC(=N)N1CCC(Oc2ccc(NC/C(C)=C/c3cccc(C(=N)N)c3)cc2[N+](=O)[O-])CC1
II: CC(=N)N1CCC(Oc2ccc(NC/C=C/c3cccc(C(=N)N)c3)cc2F)CC1
Param metric = pKi; output whichever of I , II has the minimum value. Mark your selection by writing its label.
II

----------
studyTarget: Coagulation factor X (Homo sapiens)
recordedEndpoint: Ki (nM)

Guide cases for Ki, answers given:
CC(=N)N1CCC(Oc2ccc3c(nc(C)n3Cc3ccc4ccc(C(=N)N)cc4c3)c2[N+](=O)[O-])CC1 | 0.3
CC(=N)N1CCC(Oc2ccc(NC/C=C/c3cccc(C(=N)N)c3)cc2F)CC1 | 4.1
CC(=N)N1CCC(Oc2ccc(NC/C(C)=C/c3cccc(C(=N)N)c3)cc2[N+](=O)[O-])CC1 | 0.07
CC(=N)N1CCC(Oc2ccc(NC/C=C/c3cc(C(=N)N)ccc3O)cc2C(F)(F)F)CC1 | 0.1
CCOC(=O)c1cc(NC/C=C/c2cccc(C(=N)N)c2)ccc1OC1CCN(C(C)=N)CC1 | 6.8

I: CC(=N)N1CCC(Oc2ccc(N(C/C=C/c3cccc(C(=N)N)c3)C(=O)CCC(=O)O)cc2C(F)(F)F)CC1
II: CC(=N)N1CCC(Oc2ccc(NCc3cccc(-c4cccc(C(=N)N)c4)c3)cc2[N+](=O)[O-])CC1
Larger number for Ki: I , or II ? Mark your selection by writing its label.
I
(I: 0.28 nM, II: 0.17 nM)

a: N=C(N)c1ccc(O)c(/C=C/CN(C(=O)CCC(=O)O)c2ccc(OC3CCN(CC(=O)O)CC3)c(C(F)(F)F)c2)c1
b: CC(=N)N1CCC(Oc2ccc(NC/C=C/c3cccc(C(=N)N)c3)cc2C(F)(F)F)CC1
c: CC(=N)N1CCC(Oc2ccc(NCc3ccc4ccc(C(=N)N)cc4c3)cc2[N+](=O)[O-])CC1
// sort entries: Ki, high to low Thanks in advance for listing the labels in the requested order.
b, a, c
(b: 0.88 nM, a: 0.34 nM, c: 0.08 nM)

----------
studyTarget: UniProt:P00760
pKi: −log10 of the molar value.
recordedEndpoint: pKi

Guide cases for pKi, answers given:
CC(=N)N1CCC(Oc2ccc(NC/C=C/c3cccc(C(=N)N)c3)cc2C(F)(F)F)CC1 | 7.30
CC(=N)N1CCC(Oc2ccc(NC/C(C)=C/c3cccc(C(=N)N)c3)cc2[N+](=O)[O-])CC1 | 8.30

P: CC(=N)N1CCC(Oc2ccc(NCc3ccc4ccc(C(=N)N)cc4c3)cc2[N+](=O)[O-])CC1
Q: CC(=N)N1CCC(Oc2ccc(NC/C=C/c3cccc(C(=N)N)c3)cc2[N+](=O)[O-])CC1
R: CC(=N)N1CCC(Oc2ccc(N(C/C=C/c3cccc(C(=N)N)c3)C(=O)CCC(=O)O)cc2C(F)(F)F)CC1
S: CC(=O)N1CCC(Oc2ccc(NC/C=C/c3cc(C(=N)N)ccc3O)cc2C(F)(F)F)CC1
// sort entries: pKi, high to low Thanks in advance for listing the labels in the requested order.
P, Q, R, S
(P: 8.15, Q: 7.57, R: 6.96, S: 6.08)

A: CS(=O)(=O)N1CCC(Oc2ccc(NC/C=C/c3cc(C(=N)N)ccc3O)cc2C(F)(F)F)CC1
B: CCOC(=O)c1cc(NC/C=C/c2cccc(C(=N)N)c2)ccc1OC1CCN(C(C)=N)CC1
Param metric = pKi; output whichever of A , B has the minimum value. Mark your selection by writing its label.
A

----------
studyTarget: Prothrombin (Homo sapiens, UniProt P00734)
experiment: Concentration required for twofold increase in thrombin clotting time in human plasma
Assay type: functional, cell-free
recordedEndpoint: Concentration (µM)

Guide cases for Concentration, answers given:
CN1CCC(Oc2ccc(NC/C=C/c3cc(C(=N)N)ccc3O)cc2C(F)(F)F)CC1 | 156
CC(=O)N1CCC(Oc2ccc(NC/C=C/c3cc(C(=N)N)ccc3O)cc2C(F)(F)F)CC1 | 151
CC(=O)N1CCC(Oc2ccc(N(C/C=C/c3cc(C(=N)N)ccc3O)C(=O)CCC(=O)O)cc2C(F)(F)F)CC1 | 173
CC(=N)N1CCC(Oc2ccc(NC/C=C/c3cc(C(=N)N)ccc3O)cc2C(F)(F)F)CC1 | 210
CC(=N)N1CCC(Oc2ccc(N(C/C=C/c3cccc(C(=N)N)c3)C(=O)CCC(=O)O)cc2C(F)(F)F)CC1 | 540
CC(=N)N1CCC(Oc2ccc(NC/C=C/c3cccc(C(=N)N)c3)cc2C(F)(F)F)CC1 | 220
CC(=N)N1CCC(Oc2ccc(N(C/C=C/c3cccc(C(=N)N)c3)C(=O)c3ccc(C(=O)O)c(C(=O)O)c3)cc2C(F)(F)F)CC1 | 200
CC(=N)N1CCC(Oc2ccc(NC/C=C/c3cccc(C(=N)N)c3)cc2F)CC1 | 240

A: CCOC(=O)CCC(=O)N(C/C=C/c1cc(C(=N)N)ccc1O)c1ccc(OC2CCN(C(C)=N)CC2)c(C(F)(F)F)c1
B: CCOC(=O)CCC(=O)N(C/C=C/c1cccc(C(=N)N)c1)c1ccc(OC2CCN(C(C)=N)CC2)c(C(F)(F)F)c1
C: CCOC(=O)c1cc(NC/C=C/c2cccc(C(=N)N)c2)ccc1OC1CCN(C(C)=N)CC1
// sort entries: Concentration, high to low Thanks in advance for listing the labels in the requested order.
A, B, C

----------
studyTarget: UniProt:P00734
experiment: Concentration required to double the prothrombin based clotting time in human plasma
Format: functional, cell-free
recordedEndpoint: Concentration (µM)

Guide cases for Concentration, answers given:
CC(=N)N1CCC(Oc2ccc(N(C/C=C/c3cccc(C(=N)N)c3)C(=O)CCC(=O)O)cc2C(F)(F)F)CC1 | 0.75
CCOC(=O)CCC(=O)N(C/C=C/c1cc(C(=N)N)ccc1O)c1ccc(OC2CCN(C(C)=N)CC2)c(C(F)(F)F)c1 | 0.8

P: CN1CCC(Oc2ccc(NC/C=C/c3cc(C(=N)N)ccc3O)cc2C(F)(F)F)CC1
Q: CC(=O)N1CCC(Oc2ccc(NC/C=C/c3cc(C(=N)N)ccc3O)cc2C(F)(F)F)CC1
Larger number for Concentration: P , or Q ? Mark your selection by writing its label.
Q
(Q: 21 µM, P: 0.98 µM)

----------
studyTarget: Prothrombin (Homo sapiens)
experiment: Concentration required to double the prothrombin based clotting time in human plasma
Assay type: functional, cell-free
recordedEndpoint: Concentration (µM)

CC(=O)N1CCC(Oc2ccc(N(C/C=C/c3cc(C(=N)N)ccc3O)C(=O)CCC(=O)O)cc2C(F)(F)F)CC1 | 3
CCOC(=O)CCC(=O)N(C/C=C/c1cccc(C(=N)N)c1)c1ccc(OC2CCN(C(C)=N)CC2)c(C(F)(F)F)c1 | 0.87
CC(=N)N1CCC(Oc2ccc(NC/C=C/c3cc(C(=N)N)ccc3O)cc2C(F)(F)F)CC1 | 1.05
CCOC(=O)c1cc(NC/C=C/c2cccc(C(=N)N)c2)ccc1OC1CCN(C(C)=N)CC1 | 2.6
CC(=N)N1CCC(Oc2ccc(N(C/C=C/c3cc(C(=N)N)ccc3O)C(=O)CCC(=O)O)cc2C(F)(F)F)CC1 | 0.54
CC(=N)N1CCC(Oc2ccc(NC/C=C/c3cccc(C(=N)N)c3)cc2F)CC1 | 0.73

I: CC(=N)N1CCC(Oc2ccc(N(C/C=C/c3cccc(C(=N)N)c3)C(=O)c3ccc(C(=O)O)c(C(=O)O)c3)cc2C(F)(F)F)CC1
II: CC(=N)N1CCC(Oc2ccc(NC/C=C/c3cccc(C(=N)N)c3)cc2C(F)(F)F)CC1
Larger number for Concentration: I , or II ? Mark your selection by writing its label.
II

----------
studyTarget: Serine protease 1 (Homo sapiens)
experiment: The selectivity ratio for Trypsin and Coagulation factor Xa was determined
recordedEndpoint: Ratio

Guide cases for Ratio, answers given:
CCOC(=O)CCC(=O)N(C/C=C/c1cc(C(=N)N)ccc1O)c1ccc(OC2CCN(C(C)=N)CC2)c(C(F)(F)F)c1 | 3300
CC(=N)N1CCC(Oc2ccc(N(C/C=C/c3cc(C(=N)N)ccc3O)C(=O)CCC(=O)O)cc2C(F)(F)F)CC1 | 2800

P: CC(=N)N1CCC(Oc2ccc(NC/C=C/c3cc(C(=N)N)ccc3O)cc2C(F)(F)F)CC1
Q: CCOC(=O)CCC(=O)N(C/C=C/c1cccc(C(=N)N)c1)c1ccc(OC2CCN(C(C)=N)CC2)c(C(F)(F)F)c1
Param metric = Ratio; output whichever of P , Q has the minimum value. Mark your selection by writing its label.
Q
(Q: 140, P: 2000)
